# targetEntity: SARS-CoV-2 full length spike protein, wild type, expressed on the surface of transiently transfected CHO cells (SARS-CoV-2, UniProt P0DTC2 14-1273)
measurementLabel: median fluorescence fold over isotype control (fold over isotype)

binder: antibody 420 (antibody, V domains shown) VH: QVQLVESGGGVVQPGRSLRLSCAASGFTFSSYGMHWVRQAPGKGLEWVAVIWYDGSNKYYADSVKGRFTISRDNSKNTLYLQMNSLRAEDTAVYYCAKDGGDYGDVNFDYWGQGTLVTVSS VL: SYELTQPPSVSVSPGQTARITCSGDALPKQYAYWYQQKPGQAPVLVIYKDSERPSGIPERFSGSSSGTTVTLTISGVQAEDEADYYCQSAGSSGNYKVFGGGTKLTVL
measurement: 1.99

// provenance: patent US20210292393A1
